ASSAY_TARGET: T1, human HGF (human, UniProt P14210 32-728)
T1 construct: also called hepatocyte growth factor
T1 sequence (P14210 32-728 limits assumed): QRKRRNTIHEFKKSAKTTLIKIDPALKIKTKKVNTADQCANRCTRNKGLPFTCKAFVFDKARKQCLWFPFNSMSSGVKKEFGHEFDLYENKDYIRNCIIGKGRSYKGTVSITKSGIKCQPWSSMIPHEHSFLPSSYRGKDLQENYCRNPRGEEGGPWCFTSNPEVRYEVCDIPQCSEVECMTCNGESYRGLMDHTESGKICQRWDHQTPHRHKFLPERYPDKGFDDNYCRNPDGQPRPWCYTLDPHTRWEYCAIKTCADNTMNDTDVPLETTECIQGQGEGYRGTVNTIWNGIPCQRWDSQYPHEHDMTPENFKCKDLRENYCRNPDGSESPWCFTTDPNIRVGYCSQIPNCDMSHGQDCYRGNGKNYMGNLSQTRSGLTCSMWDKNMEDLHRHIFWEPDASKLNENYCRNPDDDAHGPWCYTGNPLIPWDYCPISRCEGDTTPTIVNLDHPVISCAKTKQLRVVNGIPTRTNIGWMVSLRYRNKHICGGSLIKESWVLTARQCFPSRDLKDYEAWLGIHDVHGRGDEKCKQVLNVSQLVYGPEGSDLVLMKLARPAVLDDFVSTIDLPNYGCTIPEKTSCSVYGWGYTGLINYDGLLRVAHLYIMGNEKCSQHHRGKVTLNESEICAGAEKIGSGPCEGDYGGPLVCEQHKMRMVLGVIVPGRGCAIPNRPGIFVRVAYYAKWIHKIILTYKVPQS
PROTOCOL_DESCRIPTION: SPR (ProteOn)

{"BINDER": "Protein #37 (designed binder) MRGSHHHHHHGSDLGKKLLEAARAGQDDEVRILMANGADVNASDDTGLTPLHLAANRGHLEIVEVLLKHGADVNANDFAGMTPLHLAANVGHLEIVEVLLKYGADVNAHDDYGLTPLHLAANWRHLEIVEVLLKNGADVNAQDKFGKTAFDISIDNGNEDLAEILQKAA", "binding result": "binds"}
{"BINDER": "Protein #35 (designed binder) MRGSHHHHHHGSDLGKKLLEAARAGQDDEVRILMANGADVNANDFLGLTPLHLAASTGHLEIVEVLLKYGADVNAIDAYGHTPLHLAANNGHLEIVEVLLKYGADVNAIDHFGYTPLHLAAMFGHLEIVEVLLKNGADVNAQDKFGKTAFDISIDNGNEDLAEILQKAA", "binding result": "binds"}
